Attribution: ChEMBL document CHEMBL3352020

Listed below: IC50 values for each entry.
# targetOrSystem: Stromelysin-1 (Homo sapiens, UniProt P08254)
# Sequence (P08254 whole entry): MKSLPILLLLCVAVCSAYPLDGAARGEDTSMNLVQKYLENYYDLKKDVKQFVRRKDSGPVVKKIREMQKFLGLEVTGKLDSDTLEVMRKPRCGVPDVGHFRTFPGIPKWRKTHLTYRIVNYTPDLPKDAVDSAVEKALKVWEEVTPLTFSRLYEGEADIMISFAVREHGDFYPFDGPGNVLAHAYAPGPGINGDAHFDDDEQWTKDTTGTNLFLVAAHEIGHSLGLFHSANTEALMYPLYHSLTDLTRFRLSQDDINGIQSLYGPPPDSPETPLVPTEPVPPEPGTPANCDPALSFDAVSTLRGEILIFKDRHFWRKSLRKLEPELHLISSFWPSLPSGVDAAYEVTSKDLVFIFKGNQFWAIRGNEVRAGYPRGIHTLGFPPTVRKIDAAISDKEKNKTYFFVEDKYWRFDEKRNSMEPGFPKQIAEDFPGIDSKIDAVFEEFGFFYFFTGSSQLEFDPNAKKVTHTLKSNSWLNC
assayReadout: IC50

compound | assayReadout | assayValue
NC(=O)CC1CCCc2sc3nc(C(=O)NCc4ccc5c(c4)NC(=O)CO5)[nH]c(=O)c3c21 (racemic) | IC50 | > 2.5 µM
Cn1c(=O)n(Cc2ccc(C(=O)O)cc2)c(=O)c2cc(C#CCc3ccccc3)ccc21 | IC50 | > 30 µM
O=C1N=C(O)NC(=O)[C@@]1(c1ccccc1)N1CCC(CCO)CC1 | IC50 | 30 µM

###

# targetOrSystem: Matrix metalloproteinase-14 (Homo sapiens, UniProt P50281)

compound | targetOrSystem | IC50
Cn1c(=O)n(Cc2ccc(C(=O)O)cc2)c(=O)c2cc(C#CCc3ccccc3)ccc21 | Matrix metalloproteinase-14 (Homo sapiens, UniProt P50281) | > 30 µM
NC(=O)CC1CCCc2sc3nc(C(=O)NCc4ccc5c(c4)NC(=O)CO5)[nH]c(=O)c3c21 (racemic) | Matrix metalloproteinase-14 (Homo sapiens, UniProt P50281) | > 2.5 µM
